B1: POU domain, class 3, transcription factor 2, residues 356 to 411; numbered along this chain, P20265 (parent)
chain: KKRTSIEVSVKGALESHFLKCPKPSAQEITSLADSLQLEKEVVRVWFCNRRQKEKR

variants of: B1; assay: abundance fitness (aPCA) (normalised: wild type 0, dead -1); higher = more abundant; growth selection in yeast, the domain comes from the species named; conditions: Homo sapiens
Label scheme for abundance fitness: lower than -0.2 is Not satisfied, -0.2 and above is Satisfied.

>>> label("KKRTSIEVSVKGALESHFLFCPKPSAQEITSLADSLQLEKEVVRVWFCNRRQKEKR [K20F]")
"Satisfied"
>>> label("KKRTSIEVSVKGALESHFLKCPKPSAQEITSLATSLQLEKEVVRVWFCNRRQKEKR [D34T]")
"Satisfied"
>>> label("KKRTSIEVSVKGALENHFLKCPKPSAQEITSLADSLQLEKEVVRVWFCNRRQKEKR [S16N]")
"Not satisfied"
>>> label("KKRTSIEVSVKGATESHFLKCPKPSAQEITSLADSLQLEKEVVRVWFCNRRQKEKR [L14T]")
"Not satisfied"
>>> label("KKRTSIEVSVKGALESHFLKCPKPSAQEITSLADSLQLEKEVVRVWFCNRRSKEKR [Q52S]")
"Satisfied"
>>> label("KKRTSIEVSVKGALESHFLKCPQPSAQEITSLADSLQLEKEVVRVWFCNRRQKEKR [K23Q]")
"Satisfied"
>>> label("KKRTSIEVSVKGALESHFLKFPKPSAQEITSLADSLQLEKEVVRVWFCNRRQKEKR [C21F]")
"Not satisfied"
>>> label("KKRTSIEVSVKGAQESHFLKCPKPSAQEITSLADSLQLEKEVVRVWFCNRRQKEKR [L14Q]")
"Not satisfied"
>>> label("KKRTSIEVSVKGALESHFLKCPKPSAQEITSLFDSLQLEKEVVRVWFCNRRQKEKR [A33F]")
"Not satisfied"
>>> label("KKRTSIEVSVKGALESHFLKCPKPSAQEITSLADSLQLEKEVVRVWFCNRRQKTKR [E54T]")
"Not satisfied"
>>> label("KKCTSIEVSVKGALESHFLKCPKPSAQEITSLADSLQLEKEVVRVWFCNRRQKEKR [R3C]")
"Satisfied"
>>> label("KKRTSIEVSVKGALESHFLKCEKPSAQEITSLADSLQLEKEVVRVWFCNRRQKEKR [P22E]")
"Not satisfied"
>>> label("KKRTSIHVSVKGALESHFLKCPKPSAQEITSLADSLQLEKEVVRVWFCNRRQKEKR [E7H]")
"Satisfied"
>>> label("KKRTSIEVSVKGALESHFLKCPKPSAQEITSLADSLQLEKWVVRVWFCNRRQKEKR [E41W]")
"Not satisfied"
>>> label("KKRTSIEVPVKGALESHFLKCPKPSAQEITSLADSLQLEKEVVRVWFCNRRQKEKR [S9P]")
"Satisfied"
>>> label("KKRTSIEVSVKGALESHFLKCPKPSAQEITSLADSLQLEKEVVRVWFCNRRQKEKE [R56E]")
"Satisfied"
>>> label("KKRTSIEVSVKGALESGFLKCPKPSAQEITSLADSLQLEKEVVRVWFCNRRQKEKR [H17G]")
"Not satisfied"
>>> label("KKRTSIEVSVKGALNSHFLKCPKPSAQEITSLADSLQLEKEVVRVWFCNRRQKEKR [E15N]")
"Not satisfied"
>>> label("KKRTSIEVSVKGALESHFLKCPKPSAQEIASLADSLQLEKEVVRVWFCNRRQKEKR [T30A]")
"Satisfied"
>>> label("KKRTSIEVSVKGALESHFLKCPIPSAQEITSLADSLQLEKEVVRVWFCNRRQKEKR [K23I]")
"Satisfied"
>>> label("KKRTSIEVSVKGALESHFLKCPKPSAQEITSLADSLQLEKEVVRVWFCNRRQKEQR [K55Q]")
"Not satisfied"

Source listed as the Human Domainome abundance scans (Beltran et al. 2025).
